test: T. cruzi intracellular proliferation inhibitors, primary screen, cell-based, beta-gal Tulahuen parasites, NIH3T3 host, luminescence (AID 624255); conditions: T. cruzi beta-gal in NIH3T3, GalScreen luminescence, 90 h; at 8.34 µM; active compounds read high
Out of some 77,000 compounds screened, about 4,600 (6%) were called active. Inconclusive results (about 1%) are left out. The list comes from a sample in which actives are over-represented; it also holds close analogues and randomly drawn compounds.
PROPERTY LABEL: inhibition (%)
One number for each entry, in %.

Example entries begin here.
[
  {
    "STRUCTURE SMILES STRING": "N#Cc1ccc(-c2ccc3c(c2)[C@H]2[C@H](CCN2Cc2ccc4c(c2)OCO4)[C@@H](CO)N3)cc1",
    "inhibition (%)": 79.2
  },
  {
    "STRUCTURE SMILES STRING": "CN1c2ccc(-c3ccc(C#N)cc3)cc2[C@@H]2[C@@H](CCN2S(=O)(=O)c2cccc(F)c2)[C@@H]1CO",
    "inhibition (%)": 72.5
  },
  {
    "STRUCTURE SMILES STRING": "O=C(Cc1ccccn1)NCC[C@H]1CC[C@@H](NS(=O)(=O)c2ccc(F)cc2)[C@H](CO)O1",
    "inhibition (%)": 13.9
  },
  {
    "STRUCTURE SMILES STRING": "O=C(Cc1ccccc1)N1CC[C@H]2[C@H](CO)Nc3ccc(-c4ccccc4F)cc3[C@H]21",
    "inhibition (%)": 111
  },
  {
    "STRUCTURE SMILES STRING": "C[C@@H]1CCCCO[C@@H](CN(C)S(C)(=O)=O)[C@H](C)CN([C@@H](C)CO)C(=O)c2cc(NS(=O)(=O)c3cccs3)ccc2O1",
    "inhibition (%)": -8.12
  },
  {
    "STRUCTURE SMILES STRING": "C[C@@H]1CCCCO[C@@H](CN(C)S(=O)(=O)c2ccc(F)cc2)[C@@H](C)CN([C@@H](C)CO)C(=O)c2cc(NS(=O)(=O)c3cccs3)ccc2O1",
    "inhibition (%)": 10.6
  },
  {
    "STRUCTURE SMILES STRING": "C[C@@H]1CCCCO[C@H](CN(C)S(=O)(=O)c2cccs2)[C@H](C)CN([C@@H](C)CO)C(=O)c2cc(NS(=O)(=O)c3cccs3)ccc2O1",
    "inhibition (%)": -8.67
  },
  {
    "STRUCTURE SMILES STRING": "N#Cc1ccc(-c2ccc3c(c2)[C@@H]2[C@@H](CCN2C(=O)Cc2ccncc2)[C@@H](CO)N3)cc1",
    "inhibition (%)": 108
  },
  {
    "STRUCTURE SMILES STRING": "C[C@@H]1CN([C@H](C)CO)C(=O)c2cc(NS(=O)(=O)c3cccs3)ccc2O[C@@H](C)CCCCO[C@@H]1CN(C)S(=O)(=O)c1cccs1",
    "inhibition (%)": -40.5
  }
]

With those in mind, consider the next compound.
What value of inhibition has been recorded for this entry: `O=C(C[C@@H]1CC[C@@H]2[C@H](COC[C@H](O)CN2C(=O)Cc2ccccc2)O1)NC1CCC1`
27.2

###

What inhibition was measured for each of the following?
test: T. cruzi intracellular proliferation inhibitors, primary screen, cell-based, beta-gal Tulahuen parasites, NIH3T3 host, luminescence (AID 624255); conditions: T. cruzi beta-gal in NIH3T3, GalScreen luminescence, 90 h; at 8.34 µM; active compounds read high
The whole screen tested about 77,000 compounds, of which about 4,600 (6%) were called active. Roughly 1% stayed inconclusive and do not appear here. What follows is part of a selection rich in actives, with near analogues and random picks from the rest.
Give bare numbers, in %.

Examples with answers:
[
  {
    "STRUCTURE SMILES STRING": "CO[C@H]1CN(C)C(=O)c2cc(NS(C)(=O)=O)ccc2OC[C@@H](C)N(C)C[C@@H]1C",
    "READING": 13.7
  },
  {
    "STRUCTURE SMILES STRING": "C[C@@H]1CCCCO[C@H](CN(C)Cc2ccc(C(F)(F)F)cc2)[C@H](C)CN([C@H](C)CO)C(=O)c2cc(NC(=O)Nc3ccc(F)cc3)ccc2O1",
    "READING": 103
  },
  {
    "STRUCTURE SMILES STRING": "Cc1noc(C)c1NC(=O)N(C)C[C@H]1OCCCC[C@H](C)Oc2ccc(NC(=O)Nc3ccc4c(c3)OCO4)cc2C(=O)N([C@H](C)CO)C[C@@H]1C",
    "READING": 17.1
  },
  {
    "STRUCTURE SMILES STRING": "C[C@@H]1CN([C@H](C)CO)C(=O)c2cc(NC(=O)Nc3ccccc3)ccc2O[C@@H](C)CCCCO[C@H]1CN(C)Cc1ccc(C(F)(F)F)cc1",
    "READING": 73.3
  },
  {
    "STRUCTURE SMILES STRING": "CC(=O)N1[C@H](C(=O)N(C)C)[C@@H](CO)[C@@H]2Cn3c(ccc(-c4ccccc4)c3=O)[C@@H]21",
    "READING": 16.7
  }
]

# per-item lookup of inhibition; items listed below
1. C[C@@H]1CCCCO[C@@H](CN(C)Cc2ccc(C(F)(F)F)cc2)[C@@H](C)CN([C@H](C)CO)C(=O)c2cc(NC(=O)Nc3ccccc3)ccc2O1
2. CCC(=O)NC[C@H]1[C@@H](c2ccc(C3=CCCC3)cc2)[C@@H](CO)N1C(=O)C1CC1
3. O=C(NC[C@@H]1[C@H](c2ccccc2)[C@H](CO)N1CC1CCCC1)c1cccnc1
4. CCC(=O)N1[C@@H]2c3ccc(-c4cccnc4)c(=O)n3C[C@H]1[C@H](CO)[C@H]2C(=O)N1CCc2ccccc2C1
5. COCC(=O)N1C[C@H]2[C@@H](c3ccccc31)[C@@H](CO)N2Cc1ccccc1
6. COCC(=O)N1[C@H](CNC(=O)c2ccccn2)[C@H](c2ccccc2)[C@@H]1CO
7. O=C(C[C@@H]1CC[C@H]2[C@@H](COC[C@H](O)CN2C(=O)Nc2ccc(Cl)cc2)O1)NCC1CC1

110
21.5
15.8
29.4
-14.2
26.4
9.76

List the reported inhibition of each compound below.
1. COc1ccc(NC(=O)N(C)C[C@@H]2OCCCC[C@H](C)Oc3ccc(NS(=O)(=O)c4c(C)noc4C)cc3C(=O)N([C@@H](C)CO)C[C@@H]2C)cc1
2. COCCNC[C@@H]1[C@H](c2ccccc2)[C@H](CO)N1c1nc(C)c(C)s1

52.5
100
